Reported values of pIC50 for individual entries
- study.system: Peptidyl-prolyl cis-trans isomerase NIMA-interacting 1 (Homo sapiens, UniProt Q13526)
- Sequence (Q13526 whole entry): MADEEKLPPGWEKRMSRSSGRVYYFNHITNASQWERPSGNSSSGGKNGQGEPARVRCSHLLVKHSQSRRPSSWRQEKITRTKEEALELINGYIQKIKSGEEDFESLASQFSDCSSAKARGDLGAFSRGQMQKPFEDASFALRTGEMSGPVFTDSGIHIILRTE
- assay.remarks: Inhibition of recombinant human Pin1 (Met1 to Glu163 residues) expressed in Escherichia coli using Suc-Ala-Glu-cis-Pro-Phe-4-nitroanilide as substrate preincubated for 30 mins followed by substrate addition and measured for 90 secs by protease-coupled assay
Scale: negative log10 of molar concentration, which is what pIC50 denotes.

- structure.string: "O=C(CCn1c(-c2ccc(C(=O)O)cc2)nc2ccccc21)Nc1cc(Cl)cc(Cl)c1"
  pIC50: 5.54
- structure.string: "Cc1ccccc1NC(=O)CCn1c(-c2ccc(C(=O)O)cc2)nc2ccccc21"
  pIC50: 5.14
- structure.string: "COc1cc(NC(=O)CCn2c(-c3ccc(C(=O)O)cc3)nc3ccccc32)cc(OC)c1"
  pIC50: 5.45
- structure.string: "CC(C)(C)c1ccc(OCCCn2c(-c3ccc(C(=O)O)cc3)nc3ccccc32)cc1"
  pIC50: 5.72

Turning to the following compound.
Give the measured pIC50 of O=C(CCn1c(-c2ccc(C(=O)O)cc2)nc2ccccc21)Oc1ccc(Oc2ccccc2)cc1 .
5.99
